tested on: RPMI-8226; experiment: NCI tumour cell line growth inhibition, 48 h
The source made the active and inactive calls. Cut-off read from the data, not from the text of the source: active = GI50 up to about 1.1 µM and inactive = higher.
reported.endpoint: GI50

- CCC1C(=O)OCc2c1cc1n(c2=O)C(CC)c2c-1nc1ccccc1c2Cl (stereo unspecified): 13.2 µM (inactive)
- CCOC(=O)C1=CN(C(=O)c2ccccc2)CCC1Cc1ccccc1 (stereo unspecified): 13.5 µM (inactive)
- C[C@H]1CC[P+](C)(c2ccccc2)C1 (stereo partly specified): > 100 µM (inactive)
- N#Cc1c(O)c(/C=N/c2ccc(Cl)cc2)c(=O)n2c1[nH]c1ccccc12: > 100 µM (inactive)
- COc1ccc(N(C)S(=O)(=O)c2ccccc2)cc1: 86.9 µM (inactive)
- CC(=O)NC1=C(OS(=O)(=O)c2ccc(C)cc2)CN(C)C1=O: 1.59 µM (inactive)
- CC1=CC(C)(C)N=C2SC(c3ccc(N)cc3)=NN12: 21.1 µM (inactive)
- O=C(OCC1CCCN2CCCCC12)c1cccnc1 (stereo unspecified): > 100 µM (inactive)
- c1csc(C(NC2=NCCO2)C2CC2)c1 (stereo unspecified): > 100 µM (inactive)
- COc1ccc(N2C(=O)[C@@H]3[C@@H]4CC(C)CC[C@@H]4c4c([nH]c5ccccc45)[C@@H]3C2=O)cc1 (stereo partly specified): > 10 µM (inactive)
- N#C/C(N)=C(\C#N)NC(=O)C(=O)N/C(C#N)=C(\N)C#N: > 100 µM (inactive)

* * *

test system: SF-268; experiment: NCI tumour cell line growth inhibition, 48 h
Calls of active or inactive are those of the source. Rule as the data show it: active = GI50 up to about 1.1 µM and inactive = higher.
reported.endpoint: GI50

- Cc1ccc(C2=Nn3c(nc4sc(-c5ccccc5)cc4c3=O)SC2)cc1: > 100 µM (inactive)
- CCCCCCCC(=O)OCC(C[As](=O)(O)O)OC(=O)CCCCCCC (stereo not given): 14.9 µM (inactive)
- Cc1cn(CC2=NCC(O)CN2)c(=O)[nH]c1=O (stereo not given): > 100 µM (inactive)
- COc1ncnc2c(NC3OC(CO)C(O)C3O)ncnc12 (stereo not given): 0.506 µM (active)
- C=C1C/C(=C/C)C(=O)O[C@@H]2CCN3CC=C(COC(=O)[C@]1(C)O)[C@H]23: > 100 µM (inactive)
- CC1(C)CCC2(C(=O)OC3OC(CO)C(O)C(O)C3O)CCC3(CO)C(=CCC4C5(C)CC(O)C(O)C(C)(C(=O)OC6OC(CO)C(O)C(O)C6O)C5CCC43C)C2C1 (stereo not given): > 100 µM (inactive)
- CCOC(=O)C(c1ccsc1)P(=O)(OCC)OCC (stereo not given): 23.2 µM (inactive)
- CC(C)C[P+](c1ccccc1)(c1ccccc1)c1ccccc1: 10.3 µM (inactive)
- CNC(=O)OC(COC)CN1CCN(c2ccccc2C)CC1 (stereo not given): > 10 µM (inactive)
- CN(/N=C/c1ccc(OCc2cccc(COc3ccc(C=O)cc3)n2)cc1)c1cnn(-c2ccc(Cl)cc2Cl)c(=O)c1Cl: 56 µM (inactive)

* * *

test system: UACC-62; test: NCI tumour cell line growth inhibition, 48 h
The source made the active and inactive calls. Cut-off read from the data, not from the text of the source: active = GI50 up to about 1.1 µM and inactive = higher.
Outcomes: active, inactive

• COc1c(O)cc2c(c1O)C(=O)/C(=C/c1ccc(O)cc1)CO2 = inactive
• COc1cc2nc(-c3cccs3)nc(Nc3ccccc3C(=O)NN)c2cc1OC = inactive
• N#C/C(C(=O)Nc1ccc(Cl)cc1)=C(/N)N1CCCC1 = inactive
• c1ccc(C2OC3(CCC[C@H]4C[C@H]43)O[C@H]2c2ccccc2)cc1 (some centres undefined) = inactive
• Cc1c[nH]c2c(O)cc3c(c12)[C@H](CCl)CN3C(=O)c1cc2cc(NC(=O)Nc3ccc4[nH]c(C(=O)N5C[C@@H](CCl)c6c5cc(O)c5[nH]cc(C)c65)cc4c3)ccc2[nH]1 = active
• CC(C)C[P+](c1ccccc1)(c1ccccc1)c1ccccc1 = inactive
• CCOC(=O)/C=C(/C(=O)OCC)n1cc(C)c(=O)n(Cc2cn(COCCOC(C)=O)nn2)c1=O = inactive
• CN(C)c1cccc2c1C(=O)C=CC21c2ccc(N(C)C)c3c(N(C)C)ccc(c23)C(c2ccccc2)C1c1ccccc1 (centres undefined) = inactive
• O=[N+]([O-])/C=C/c1c(Cl)cccc1Cl = inactive
• ClCCCN(CCCCl)c1ccc(/C=N/c2cccc(Cl)c2)cc1 = inactive
• COC(=O)C1=C(C)NC(C)=C(C(=O)OC)C1c1cccc(/[N+]([O-])=C/c2ccccc2)c1 = inactive
• CC(C)(C)OC(=O)Cn1ncn(NC(=O)Cc2ccccc2)c1=O = inactive
• O=C(N/N=C\c1cccc(O)c1)c1ccncc1 = inactive
• CSc1cc(Cl)c(C)cc1S(=O)(=O)NC(=O)Nc1ccc(Cl)cc1 = active
• O=C(OCC1CCCN2CCCCC12)c1cccnc1 (centres undefined) = inactive
• COC(=O)C1=Cc2cc3c(cc2[C@H](c2ccc4c(c2)OCO4)C1C(=O)OC)OCO3 (some centres undefined) = inactive
• C[n+]1c2ccccc2c(NC(CCC(N)=O)C(=O)O)c2ccccc21 (centres undefined) = inactive
• O=C(Nc1ccc(Cl)cc1)c1cc(S(=O)(=O)Nc2nc3cccnc3[nH]2)c(SSc2cc(Cl)c(C(=O)Nc3ccc(Cl)cc3)cc2S(=O)(=O)Nc2nc3cccnc3[nH]2)cc1Cl = inactive
• CCOC(=O)N1C2C=C(C)C(C3C(C)C(=O)N31)N(C(=O)c1ccccc1)O2 (centres undefined) = inactive

* * *

tested on: OVCAR-8; assay: NCI tumour cell line growth inhibition, 48 h
Calls of active or inactive are those of the source. No stated cut-off is given here; in the data, active = GI50 up to about 1.1 µM and inactive = higher.
We begin with a simple list: items and their reported GI50.
reported.endpoint: GI50

• Cc1ccc(S(=O)(=O)C2=Cc3ccccc3C2(O)c2ccccc2)cc1 (stereo unspecified) = 22.8 µM (inactive)
• c1cc2nnnn2nc1N1CCCC1 = > 100 µM (inactive)
• CS(=O)(=O)N1CC(CCl)c2ccc(NCCN)cc21 (stereo unspecified) = 57.5 µM (inactive)
• O=S(=O)(O)c1cc(/N=[N+](\[O-])c2cc(S(=O)(=O)O)c3ccccc3c2)cc2ccccc12 = > 100 µM (inactive)
• C/C(=C\COc1ccc2ccc(=O)oc2c1)CCC(=O)C(C)(C)O = 23.3 µM (inactive)
• Cc1ccc(S(=O)(=O)NCC2CCCCC2=O)cc1 (stereo unspecified) = > 100 µM (inactive)

* * *

system: T47D; experiment: NCI tumour cell line growth inhibition, 48 h
Active and inactive are the calls of the source. No stated cut-off is given here; in the data, active = GI50 up to about 1.1 µM and inactive = higher. Peptide text beside a SMILES is read from it. * marks the point of attachment. Trt = c1ccc(C(c2ccccc2)(c2ccccc2)*)cc1; Cbz = O=C(OCc1ccccc1)*
reported.endpoint: GI50

• C[C@@H]1CC[C@@]2(OC1)O[C@H]1C[C@H]3[C@@H]4CC[C@H]5C[C@@H](OC6OC(CO)C(OC7OC(CO)C(O)C(OC8OCC(O)C(O)C8O)C7OC7OC(CO)C(O)C(O)C7O)C(O)C6O)[C@H](O)C[C@]5(C)[C@H]4CC[C@]3(C)[C@H]1[C@@H]2C (stereo not given in full) = 5.38 µM (inactive)
• CS(=O)(=O)N1CC(CCl)c2ccc(NCCN)cc21 (stereo not given) = > 100 µM (inactive)
• COC(=O)C(CO)NC(=O)C(CSC(c1ccccc1)(c1ccccc1)c1ccccc1)NC(=O)OCc1ccccc1 (stereo not given) (Cbz-Cys(Trt)-Ser-OMe; configuration not given here) = 20.7 µM (inactive)
• ClCCCN(CCCCl)c1ccc(/C=N/c2cccc(Cl)c2)cc1 = 7.11 µM (inactive)
• O=C(O)c1ccc(NNC(=O)c2cccc3c(=O)c4ccccc4[nH]c23)cc1 = 31.6 µM (inactive)

* * *

test system: M14; experiment: NCI tumour cell line growth inhibition, 48 h
The source made the active and inactive calls. Cut-off read from the data, not from the text of the source: active = GI50 up to about 1.1 µM and inactive = higher.
Outcome codes: T (active), F (inactive)

• C/C(CC(=O)Nc1ccc(NC(=O)/C(C)=N/NS(=O)(=O)c2ccc(C)cc2)cc1)=N\NS(=O)(=O)c1ccc(C)cc1 = F
• Cc1cc2c(cc1C)[n+]([O-])c(C(=O)C/C(=N/NC(=O)c1ccccc1O)C(=O)Nc1ccccc1C(C)C)c(C)[n+]2[O-] = F
• CCOC(=O)c1nc2ccccc2nc1Oc1ccc(OC)cc1 = F
• Cc1ccc2c(c1)C(=O)C1(C2)Cc2cccc(C)c2C1=O (stereo not given) = F
• COC(=O)Cc1nc2ccccc2o1 = F
• O=C1c2ccccc2C(=O)N1c1ccc(Cc2ccc(N3C(=O)c4ccccc4C3=O)cc2)cc1 = F
• CCCCCCCC(=O)OCC(C[As](=O)(O)O)OC(=O)CCCCCCC (stereo not given) = F
• COC(=O)CCCC(=O)C1=NN(c2ccc(Cl)cc2)Cc2ccccc2N1 = F
• CCOC(=O)c1cc2c([nH]1)c(O)cc1c2ccn1Cc1ccccc1 = F
• COc1c(O)cc2c(c1O)C(=O)/C(=C/c1ccc(O)cc1)CO2 = F
• Clc1ccccc1/C=C/c1ccnc2ccccc12 = F
• C[C@]12CC[C@H]3[C@@H](CC[C@]4(O)C[C@@H](O)CC[C@]34/C=N/O)[C@@]1(O)CC[C@@H]2C1=COC(=O)C1 = T
• Cc1cc(C)c2c(c1)N[S@@](=O)S2 = F
• COc1ccc(/C=N/n2cnc3c(c2=O)S/C(=C2/SC(=S)N(c4ccc(C)cc4)C2=O)N3c2ccccc2)cc1 = F
• CN(C)CCNC(=O)c1cccc2c(NCC(=O)O)c3ccccc3nc12 = F
• Nc1nc(N)c(C2=CCNCC2)c(=O)[nH]1 = F
• C=C1C(=O)C23C(O)CC4C5(C)CCCC4(C(O)OC5)C2C(OC(C)=O)CC1C3O (stereo not given) = F
• O=C(N/N=C\c1cccc(O)c1)c1ccncc1 = F
• Cc1ccc(C(=O)Nc2ccc(S(=O)(=O)O)c3cc(S(=O)(=O)O)cc(S(=O)(=O)O)c23)cc1NC(=O)Nc1cc(C(=O)Nc2ccc(S(=O)(=O)O)c3cc(S(=O)(=O)O)cc(S(=O)(=O)O)c23)ccc1C = F
• C[N+](C)(C)C.FC(F)(F)C1(C(F)(F)F)O[SiH-]2(OC(C(F)(F)F)(C(F)(F)F)c3ccccc32)c2ccccc21 = F
• CCOc1cc(NC(C)=O)ccc1C(=O)NN1C(=O)/C(=C/c2cc(OC)c(OC)c(OC)c2)N=C1c1ccccc1 = F
• CCc1cc2c(c3c1CCCC3)CC1(Cc3ccc(C(=O)OC)cc3C1)C2 (stereo not given) = F
• CCN(CC)CCC(=O)/C=C/c1ccc(Cl)c(Cl)c1 = F
• CCOC(=O)N1C2C=C(C)C(C3C(C)C(=O)N31)N(C(=O)c1ccccc1)O2 (stereo not given) = F
• O=C(c1ccccc1)c1c(C(F)(F)F)[n+]([O-])c2cc(Cl)c(Cl)cc2[n+]1[O-] = T
• O=C1NC(=O)C2C(=O)NC(=O)C1C2(c1ccccc1)c1ccc(Cl)cc1 (stereo not given) = F
• CC(C)(C)C1=CC(=N/N=c2\scc(-c3ccccc3)n2Cc2ccccc2)C=C(C(C)(C)C)C1=O = F
• COCn1c(C)c(C)c2c(=O)oc(C)nc21 = F
• N#Cc1ccccc1NC(=O)C(=O)c1c(O)c2ccccc2oc1=O = F
• O=C1CC(=O)NC(NNS(=O)(=O)c2ccc(Cl)cc2)=N1 = F
• COC(=O)CCC(=O)NC1C2CC3CC(C2)CC1C3 (stereo not given) = F
• CC(=O)Nc1cc(Nc2cc(O)nc(O)n2)ccc1C = F
• COc1cc([C@@H]2c3cc4c(cc3[C@@H](NC(=O)c3ccc(C(C)=O)cc3)C3COC(=O)[C@@H]32)OCO4)cc(OC)c1O (stereo not given in full) = F
• Cc1nc(=O)c2cc(CN(C)c3ccc(C(=O)N[C@@H](CCC(=O)O)C(=O)O)s3)ccc2[nH]1 = T
• Brc1cc2c(cc1Br)CN(c1ccccc1)C2 = F
• COc1ccc(/C=C2\N=C(c3ccccc3)OC2=O)c(OCc2ccccc2)c1 = F
• N/C(=N\c1cccc(Cl)c1)c1ccccc1N = F
• c1cc2nnnn2nc1N1CCCC1 = F
• O=C(O)CC1(C(=O)O)CCCCC1 = F
• CCOC(=O)N(C)C(=C(F)F)C(F)(F)F = F
